- STUDY_TARGET: ALDH2*1/*2 (Homo sapiens, UniProt P05091, E504K)
- Construct: His-tag; made in house; host or cells: E. coli BL21 (pETDuet-1 co-expression)
- Sequence (P05091 18-517, stated change not applied): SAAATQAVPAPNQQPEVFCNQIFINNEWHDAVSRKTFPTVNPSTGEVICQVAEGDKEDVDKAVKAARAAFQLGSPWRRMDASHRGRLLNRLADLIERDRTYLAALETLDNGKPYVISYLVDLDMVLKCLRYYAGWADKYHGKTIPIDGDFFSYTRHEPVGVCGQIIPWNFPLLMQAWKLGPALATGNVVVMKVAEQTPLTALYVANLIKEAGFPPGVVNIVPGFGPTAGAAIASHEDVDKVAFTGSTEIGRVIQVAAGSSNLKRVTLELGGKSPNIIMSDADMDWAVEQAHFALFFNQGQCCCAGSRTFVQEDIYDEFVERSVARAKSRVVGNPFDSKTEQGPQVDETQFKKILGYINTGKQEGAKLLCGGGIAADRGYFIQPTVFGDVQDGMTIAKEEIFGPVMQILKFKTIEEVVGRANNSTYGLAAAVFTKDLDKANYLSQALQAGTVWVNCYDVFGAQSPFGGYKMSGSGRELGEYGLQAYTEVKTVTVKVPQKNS
- Sequence (P05091 18-517 E504K): as the sequence (P05091 18-517, stated change not applied) above, with E487K counted along it
- METHOD_DESCRIPTION: ALDH2 enzymatic activity, NADH accumulation at 340 nm, acetaldehyde substrate, heterozygous form
- Type: biochemical
- COND: 5 μM compound; relative to baseline enzymatic activity (100%)
READOUT_TYPE: activity at 5 µM (%)

{"columns": ["SUBSTANCE_SMILES", "activity at 5 µM / %"],
 "data": [
  ["COc1ccc(CNC(=O)c2cc(-c3cnccc3CO)cnc2OCC2CC2)cc1F", 321],
  ["COc1ccc(CNC(=O)c2cc(-c3sccc3CO)ccc2OCC2CC2)cc1F", 239],
  ["COc1ccc(CNC(=O)c2cc(-c3c(CO)cccc3N(C)C)ccc2OCC2CC2)cc1F", 116]
]}

[A] COc1ccc(CNC(=O)c2cc(-c3cc(F)ccc3CO)ccc2OCC2CC2)cc1F
[B] COc1ccc(CNC(=O)c2cc(-c3ccncc3CO)ccc2OCC2CC2)cc1F
Which record would sort first by descending activity at 5 µM, A or B ? # respond with the chosen item's label B

###

- STUDY_TARGET: ALDH2*1/*2 (Homo sapiens, UniProt P05091, E504K)
- Construct: His-tag; made in house; host or cells: E. coli BL21 (pETDuet-1 co-expression)
- METHOD_DESCRIPTION: ALDH2 enzymatic activity, NADH accumulation at 340 nm, acetaldehyde substrate, heterozygous form
- Format: biochemical
- COND: 20 μM compound; relative to baseline enzymatic activity (100%)
READOUT_TYPE: activity at 20 µM (%)

{"columns": ["MOLECULE", "READOUT_TYPE", "MEASUREMENT_UNITS", "OBS_VALUE"],
 "data": [
  ["COc1ccc(CNC(=O)c2cc(-c3c(CO)ccc[n+]3[O-])ccc2OCC2CC2)cc1F [AC14]", "activity at 20 µM", "%", 194]
]}

[I] COc1ccc(CNC(=O)c2cc(-c3cnccc3CO)ccc2OCC2CC2)cc1F [AC5]
[II] COc1ccc(CNC(=O)c2cc(-c3cscc3CO)cnc2OCC2CC2)cc1F [AC24]
Endpoint returns whichever of I and II has the numerically higher activity at 20 µM. When you have decided, please share the label of that item. I

[a] COc1ccc(CNC(=O)c2cc(-c3ccsc3CO)cnc2OCC2CC2)cc1F [AC25]
[b] COc1ccc(CNC(=O)c2cc(-c3ccsc3CO)ccc2OCC2CC2)cc1F [AC27]
[c] COc1ccc(CNC(=O)c2cc(-c3c(F)cccc3CO)ccc2OCC2CC2)cc1F [AC22]
Please rank these molecules by activity at 20 µM in descending order. Your answer should be the labels, listed in the requested order. b, a, c

###

- STUDY_TARGET: ALDH2*1/*2 (Homo sapiens, UniProt P05091, E504K)
- Construct: His-tag; made in house; host or cells: E. coli BL21 (pETDuet-1 co-expression)
- METHOD_DESCRIPTION: ALDH2 enzymatic activity, NADH accumulation at 340 nm, acetaldehyde substrate, heterozygous form
- Assay type: biochemical
- COND: 20 μM compound; relative to baseline enzymatic activity (100%)
- Protocol: ALDH2 catalyzes the oxidative reaction of substrate acetaldehyde to acetic acid using NAD^+ as a cofactor. Enzymatic activity, or catalytic rate, of aldehyde dehydrogenase (ALDH2) are measured spectrophotometrically at UV wavelength λ340 nm by the accumulation of reduced product NADH derived from NAD^+. Absorbance at λ340 nm is quantitatively proportional to the amount of NADH being produced over time (6.22 O.D. unit=1 mmol of NADH, measured in a 1-cm width standard cuvette). […]
READOUT_TYPE: activity at 20 µM (%)

{"columns": ["SUBSTANCE_SMILES", "READOUT_TYPE", "MEASUREMENT_UNITS", "OBS_VALUE"],
 "data": [
  ["COc1ccc(CNC(=O)c2cc(-c3c(F)cccc3CO)cnc2OCC2CC2)cc1F", "activity at 20 µM", "%", 230],
  ["COc1ccc(CNC(=O)c2cc(-c3sccc3CO)ccc2OCC2CC2)cc1F", "activity at 20 µM", "%", 456],
  ["COc1ccc(CNC(=O)c2cc(-c3cccnc3CO)cnc2OCC2CC2)cc1F", "activity at 20 µM", "%", 248]
]}

[A] COc1ccc(CNC(=O)c2cc(-c3cc(F)ccc3CO)ccc2OCC2CC2)cc1F
[B] COc1ccc(CNC(=O)c2cc(-c3ccccc3CO)cnc2OCC2CC2)cc1F
Which one would you say has the larger activity at 20 µM value: A , or B ? When you have decided, please share the label of that item. B

Value source: patent US9879036B2
